Test system: Liver microsomes
protocol description: Half life in human liver microsomes at 2 uM after 2 mins by LC/MS/MS analysis
Assay type: ADME, Microsome
Consider the following molecules and their measured t1/2 readings.
quantity: t1/2 (min)

- compound structure: "C[C@@H](CO)Nc1cc2c(cc1S(=O)(=O)Nc1ccc(F)c(Cl)c1)CCC(=O)N2"
  study target: "Liver microsomes"
  scale unit: "min"
  value observed: 78.8
- compound structure: "O=C1CCc2cc(S(=O)(=O)Nc3ccc(F)c(Cl)c3)c(F)cc2N1"
  study target: "Liver microsomes"
  scale unit: "min"
  value observed: 277.2
- compound structure: "CNc1cc2c(cc1S(=O)(=O)Nc1ccc(C)c(C)c1)CCC(=O)N2"
  study target: "Liver microsomes"
  scale unit: "min"
  value observed: 19.7
- compound structure: "Cc1ccc(NS(=O)(=O)c2cc3c(cc2F)NC(=O)CC3)cc1Cl"
  study target: "Liver microsomes"
  scale unit: "min"
  value observed: 22.9
- compound structure: "Cc1ccc(NS(=O)(=O)c2ccc3c(c2)CCC(=O)N3)cc1C"
  study target: "Liver microsomes"
  scale unit: "min"
  value observed: 6

---

Quick list: pEC50 per entry.
study target: Pyruvate kinase PKM (Homo sapiens)
protocol description: Activation of human PKM2 assessed as ATP product formation after 1 hr by luminescent pyruvate kinase-luciferase coupled assay
Sequence (P14618 whole entry): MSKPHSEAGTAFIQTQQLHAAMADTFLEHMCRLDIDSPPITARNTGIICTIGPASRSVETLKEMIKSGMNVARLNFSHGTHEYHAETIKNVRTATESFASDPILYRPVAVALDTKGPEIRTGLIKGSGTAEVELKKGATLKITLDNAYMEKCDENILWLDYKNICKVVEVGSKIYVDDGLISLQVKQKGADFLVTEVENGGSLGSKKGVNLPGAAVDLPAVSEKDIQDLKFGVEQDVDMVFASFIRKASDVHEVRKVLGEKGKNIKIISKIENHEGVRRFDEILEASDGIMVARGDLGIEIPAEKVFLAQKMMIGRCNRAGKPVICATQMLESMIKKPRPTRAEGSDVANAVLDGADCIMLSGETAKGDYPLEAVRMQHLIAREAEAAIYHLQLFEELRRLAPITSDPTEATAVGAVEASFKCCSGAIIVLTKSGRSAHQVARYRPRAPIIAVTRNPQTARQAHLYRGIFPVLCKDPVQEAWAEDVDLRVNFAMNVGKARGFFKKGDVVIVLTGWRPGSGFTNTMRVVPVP
pEC50: −log10 of the molar value.

- molecule: "O=C1CCc2cc(S(=O)(=O)Nc3cccc(Cl)c3)ccc2N1"
  pEC50: 6.39
- molecule: "Cc1cccc(NS(=O)(=O)c2ccc3c(c2)CCC(=O)N3)c1"
  pEC50: 6.60
- molecule: "Cc1ccc(NS(=O)(=O)c2ccc3c(ccn3C)c2)cc1C"
  pEC50: 4.70
- molecule: "Cc1ccc(NS(=O)(=O)c2cc3c(cc2Br)CCC(=O)N3)cc1Cl"
  pEC50: 5.13
- molecule: "Cc1ccc(NS(=O)(=O)c2cc3c(cc2N[C@H](C)CO)NC(=O)CC3)cc1C"
  pEC50: 6.06
- molecule: "Cc1ccc(NS(=O)(=O)c2cc3c(cc2N[C@@H](C)CO)NC(=O)CC3)cc1C"
  pEC50: 6.77
- molecule: "Cc1ccc(NS(=O)(=O)c2cc3c(cc2N[C@@H](C)CO)NC(=O)CC3)cc1Cl"
  pEC50: 7.22
- molecule: "Cc1ccc(NS(=O)(=O)c2cc3c(cc2NC(C)CO)NC(=O)CC3)cc1C (racemic)"
  pEC50: 6.64
- molecule: "COc1cccc(Cn2ncc3c4sc([S+](C)[O-])cc4n(C)c3c2=O)c1 (stereo not given)"
  pEC50: 7.14
- molecule: "O=C1CCc2cc(S(=O)(=O)Nc3ccc(F)c(Cl)c3)c(F)cc2N1"
  pEC50: 7.05

---

System: Liver microsomes
protocol description: Half life in human liver microsomes at 2 uM after 2 mins by LC/MS/MS analysis
Type: ADME, Microsome
Measured t1/2, listed per entry for reference.

- compound structure: "Cc1ccc(NS(=O)(=O)c2cc3c(cc2F)NC(=O)CC3)cc1C"
  scale unit: "min"
  t1/2: 16.5
- compound structure: "Cc1ccc(NS(=O)(=O)c2cc3c(cc2N[C@@H](C)CO)NC(=O)CC3)cc1Cl"
  scale unit: "min"
  t1/2: 30.4
- compound structure: "Cc1ccc(NS(=O)(=O)c2cc3c(cc2N(C)C)NC(=O)CC3)cc1C"
  scale unit: "min"
  t1/2: 19.4

---

study target: Pyruvate kinase PKM (Homo sapiens, UniProt P14618)
protocol description: Activation of human PKM2 assessed as ATP product formation at 57 uM after 1 hr by luminescent pyruvate-kinase luciferase coupled assay
Sequence (P14618 2-531 limits assumed): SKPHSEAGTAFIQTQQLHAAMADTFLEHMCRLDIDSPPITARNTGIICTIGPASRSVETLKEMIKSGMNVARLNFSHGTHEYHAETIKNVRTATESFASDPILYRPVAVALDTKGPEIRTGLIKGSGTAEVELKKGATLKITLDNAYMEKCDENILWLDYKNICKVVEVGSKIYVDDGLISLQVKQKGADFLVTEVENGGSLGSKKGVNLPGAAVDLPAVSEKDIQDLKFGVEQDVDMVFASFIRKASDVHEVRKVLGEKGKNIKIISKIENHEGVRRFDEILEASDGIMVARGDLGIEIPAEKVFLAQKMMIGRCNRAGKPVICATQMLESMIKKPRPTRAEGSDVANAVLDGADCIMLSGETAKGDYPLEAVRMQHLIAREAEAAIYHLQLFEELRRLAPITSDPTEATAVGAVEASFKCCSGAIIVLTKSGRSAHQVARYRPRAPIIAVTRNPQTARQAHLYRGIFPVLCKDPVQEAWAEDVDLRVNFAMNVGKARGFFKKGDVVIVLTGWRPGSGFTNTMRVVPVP
Activity calls are given as the source filed them. No cut-off for these calls is given here.
quantity: Emax

- compound structure: "Cc1cccc(NS(=O)(=O)c2ccc3c(c2)CCC(=O)N3)c1"
  quantity: "Emax"
  value observed: "101%"
- compound structure: "O=C1CCc2cc(S(=O)(=O)Nc3ccc4ncccc4c3)ccc2N1"
  quantity: "Emax"
  value observed: "inactive"
- compound structure: "O=C1CCc2cc(S(=O)(=O)Nc3ccccc3F)ccc2N1"
  quantity: "Emax"
  value observed: "95%"
- compound structure: "Cc1ccc(NS(=O)(=O)c2ccc3c(c2)CCC(=O)N3)cc1"
  quantity: "Emax"
  value observed: "102%"
- compound structure: "O=C1CCc2cc(S(=O)(=O)Nc3cccnc3)ccc2N1"
  quantity: "Emax"
  value observed: "inactive"
- compound structure: "O=C1CCc2cc(S(=O)(=O)Nc3cccc(-c4ccccc4)c3)ccc2N1"
  quantity: "Emax"
  value observed: "inactive"
- compound structure: "Cc1cc(NS(=O)(=O)c2ccc3c(c2)CCC(=O)N3)ccc1Cl"
  quantity: "Emax"
  value observed: "121%"
- compound structure: "O=C1CCc2cc(S(=O)(=O)Nc3ccc(F)cc3)ccc2N1"
  quantity: "Emax"
  value observed: "84%"
- compound structure: "O=C1CCc2cc(S(=O)(=O)Nc3ccc(Cl)c(Cl)c3)ccc2N1"
  quantity: "Emax"
  value observed: "95%"
- compound structure: "O=C1CCc2cc(S(=O)(=O)Nc3ccncc3)ccc2N1"
  quantity: "Emax"
  value observed: "inactive"
- compound structure: "O=C1CCc2cc(S(=O)(=O)Nc3cccc(C(F)(F)F)c3)ccc2N1"
  quantity: "Emax"
  value observed: "109%"

---

study target: Pyruvate kinase PKM (Homo sapiens, UniProt P14618)
protocol description: Activation of human PKM2 assessed as ATP product formation at 57 µM after 1 hr by luminescent pyruvate kinase-luciferase coupled assay

- compound structure: "Cc1ccc(NS(=O)(=O)c2cc3c(cc2N2CCCCC2)NC(=O)CC3)cc1C"
  Emax: "47%"
- compound structure: "Cc1ccc(NS(=O)(=O)c2cc3c(cc2Br)CCC(=O)N3)cc1Cl"
  Emax: "51%"
- compound structure: "COc1ccc(S(=O)(=O)Nc2ccc(C)c(C)c2)cc1"
  Emax: "53%"
- compound structure: "CC(=O)Nc1cccc(S(=O)(=O)Nc2ccc(C)c(C)c2)c1"
  Emax: "58%"
- compound structure: "Cc1ccc(NS(=O)(=O)c2cc3c(cc2NCC(C)(C)O)NC(=O)CC3)cc1C"
  Emax: "83%"

---

study target: Pyruvate kinase PKM (Homo sapiens)
protocol description: Activation of human PKM2 assessed as ATP product formation at 57 uM after 1 hr by luminescent pyruvate-kinase luciferase coupled assay

- compound structure: "O=C1CCc2cc(S(=O)(=O)Nc3cccc(Cl)c3)ccc2N1"
  study target: "Pyruvate kinase PKM (Homo sapiens)"
  Emax (%): 104
- compound structure: "Cc1ccc(NS(=O)(=O)c2ccc3c(c2)CCC(=O)N3)cc1Cl"
  study target: "Pyruvate kinase PKM (Homo sapiens)"
  Emax (%): 104
- compound structure: "O=C1CCc2cc(S(=O)(=O)Nc3cccc(F)c3)ccc2N1"
  study target: "Pyruvate kinase PKM (Homo sapiens)"
  Emax (%): 101
- compound structure: "O=C1CCc2cc(S(=O)(=O)Nc3ccc4c(c3)CCC4)ccc2N1"
  study target: "Pyruvate kinase PKM (Homo sapiens)"
  Emax (%): 73
- compound structure: "Cc1ccccc1NS(=O)(=O)c1ccc2c(c1)CCC(=O)N2"
  study target: "Pyruvate kinase PKM (Homo sapiens)"
  Emax (%): 94

---

study target: UniProt P14618
protocol description: Activation of human PKM2 assessed as ATP product formation at 57 µM after 1 hr by luminescent pyruvate kinase-luciferase coupled assay
Active and inactive are the calls of the source. No cut-off for these calls is given here.
quantity: Emax

- molecule: "Cc1ccc(NS(=O)(=O)c2ccc3[nH]c(=O)[nH]c3c2)cc1C"
  study target: "UniProt P14618"
  quantity: "Emax"
  value observed: "inactive"
- molecule: "Cc1ccc(NS(=O)(=O)c2cccc(Cl)c2)cc1C"
  study target: "UniProt P14618"
  quantity: "Emax"
  value observed: "71%"
- molecule: "Cc1ccc(NS(=O)(=O)c2cc3c(cc2N[C@@H](C)CO)CCC(=O)N3)cc1Cl"
  study target: "UniProt P14618"
  quantity: "Emax"
  value observed: "54%"
- molecule: "O=C1CCc2cc(S(=O)(=O)Nc3ccc(F)c(Cl)c3)c(F)cc2N1"
  study target: "UniProt P14618"
  quantity: "Emax"
  value observed: "88%"
- molecule: "Cc1ccc(NS(=O)(=O)c2cc3c(cc2N[C@@H](C)CO)NC(=O)CC3)cc1C"
  study target: "UniProt P14618"
  quantity: "Emax"
  value observed: "116%"
- molecule: "Cc1ccc(NS(=O)(=O)c2cc3c(cc2N[C@@H](C)CO)NC(=O)CC3)cc1Cl"
  study target: "UniProt P14618"
  quantity: "Emax"
  value observed: "96%"
- molecule: "Cc1ccc(NS(=O)(=O)c2ccc3c(c2)CC(=O)N3)cc1C"
  study target: "UniProt P14618"
  quantity: "Emax"
  value observed: "57%"
- molecule: "Cc1ccc(NS(=O)(=O)c2cc3c(cc2F)NC(=O)CC3)cc1Cl"
  study target: "UniProt P14618"
  quantity: "Emax"
  value observed: "112%"
- molecule: "Cc1ccc(NS(=O)(=O)c2cc3c(cc2-c2ccccc2)NC(=O)CO3)cc1C"
  study target: "UniProt P14618"
  quantity: "Emax"
  value observed: "inactive"
- molecule: "Cc1ccc(NS(=O)(=O)c2ccc3c(c2)CC(=O)N3C)cc1C"
  study target: "UniProt P14618"
  quantity: "Emax"
  value observed: "119%"
- molecule: "CNc1cc2c(cc1S(=O)(=O)Nc1ccc(C)c(C)c1)CCC(=O)N2"
  study target: "UniProt P14618"
  quantity: "Emax"
  value observed: "102%"
- molecule: "Cc1ccc(NS(=O)(=O)c2ccc3c(ccn3C)c2)cc1C"
  study target: "UniProt P14618"
  quantity: "Emax"
  value observed: "47%"
- molecule: "Cc1ccc(NS(=O)(=O)c2ccc3ccccc3c2)cc1C"
  study target: "UniProt P14618"
  quantity: "Emax"
  value observed: "69%"
- molecule: "Cc1ccc(NS(=O)(=O)c2cccc(C(=O)O)c2)cc1C"
  study target: "UniProt P14618"
  quantity: "Emax"
  value observed: "inactive"
- molecule: "Cc1cc(NS(=O)(=O)c2cc3c(cc2F)NC(=O)CC3)ccc1F"
  study target: "UniProt P14618"
  quantity: "Emax"
  value observed: "92%"
- molecule: "Cc1cc(NS(=O)(=O)c2cc3c(cc2F)NC(=O)CC3)ccc1Cl"
  study target: "UniProt P14618"
  quantity: "Emax"
  value observed: "93%"
- molecule: "Cc1ccc(NS(=O)(=O)c2cc3c(cc2Br)CCC(=O)N3)cc1C"
  study target: "UniProt P14618"
  quantity: "Emax"
  value observed: "52%"
- molecule: "Cc1ccc(NS(=O)(=O)c2cc3c(cc2Cl)CCC(=O)N3)cc1C"
  study target: "UniProt P14618"
  quantity: "Emax"
  value observed: "92%"
- molecule: "Cc1ccc(NS(=O)(=O)c2ccc3c(c2)CCCC(=O)N3)cc1C"
  study target: "UniProt P14618"
  quantity: "Emax"
  value observed: "88%"
- molecule: "Cc1ccc(NS(=O)(=O)c2cc3c(cc2F)NC(=O)CC3)cc1C"
  study target: "UniProt P14618"
  quantity: "Emax"
  value observed: "101%"
- molecule: "CC(=O)N1CCCc2cc(S(=O)(=O)Nc3ccc(C)c(C)c3)ccc21"
  study target: "UniProt P14618"
  quantity: "Emax"
  value observed: "76%"
- molecule: "Cc1ccc(NS(=O)(=O)c2cc3c(cc2NC(C)C)NC(=O)CC3)cc1C"
  study target: "UniProt P14618"
  quantity: "Emax"
  value observed: "123%"
- molecule: "Cc1ccc(NS(=O)(=O)c2cc3c(cc2/C=C/c2ccccc2)NC(=O)CO3)cc1C"
  study target: "UniProt P14618"
  quantity: "Emax"
  value observed: "inactive"
- molecule: "Cc1cc(NS(=O)(=O)c2cc3c(cc2N[C@@H](C)CO)NC(=O)CC3)ccc1F"
  study target: "UniProt P14618"
  quantity: "Emax"
  value observed: "95%"
- molecule: "Cc1ccc(NS(=O)(=O)c2cc3c(cc2N2CCC(N(C)C)C2)NC(=O)CC3)cc1C (racemic)"
  study target: "UniProt P14618"
  quantity: "Emax"
  value observed: "inactive"
- molecule: "Cc1ccc(NS(=O)(=O)c2cc3c(cc2N(C)C)CCC(=O)N3)cc1C"
  study target: "UniProt P14618"
  quantity: "Emax"
  value observed: "106%"
- molecule: "Cc1ccc(NS(=O)(=O)c2cc3c(cc2Cl)NC(=O)CO3)cc1C"
  study target: "UniProt P14618"
  quantity: "Emax"
  value observed: "80%"
- molecule: "Cc1ccc(NS(=O)(=O)c2cc3c(cc2NCCO)NC(=O)CC3)cc1C"
  study target: "UniProt P14618"
  quantity: "Emax"
  value observed: "132%"
- molecule: "C[C@@H](CO)Nc1cc2c(cc1S(=O)(=O)Nc1ccc(F)c(Cl)c1)CCC(=O)N2"
  study target: "UniProt P14618"
  quantity: "Emax"
  value observed: "92%"
